- System: Saccharomyces cerevisiae;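 note: PSI is a weighted mean of sequencing reads over stability bins, variants kept only with over 10 reads, mCherry proximal and sfGFP distal, peptide attached via GGGS linker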
- experiment: protein stability index of tFT-peptide fusion (C-terminal peptide) (PSI (0-1 scale)); higher = more stable (slower turnover)
- test-settings: genetic background: das1 deletion; temperature: 30 C
Lab note: anything with protein stability index at or over 0.6 counts as true; the rest go in false.

{"columns": ["residue-codes", "study-system", "label-class"],
 "data": [
  ["DECQLCNRDWRG", "Saccharomyces cerevisiae", "true"],
  ["FFVSFFFFLWLV", "Saccharomyces cerevisiae", "false"],
  ["RYVVVGACIQVV", "Saccharomyces cerevisiae", "false"],
  ["RKKKRNKKKMIM", "Saccharomyces cerevisiae", "true"],
  ["LVLLRLSSLTIF", "Saccharomyces cerevisiae", "false"],
  ["RIFRCYSFYVVV", "Saccharomyces cerevisiae", "false"],
  ["NYVFRIIIVLDA", "Saccharomyces cerevisiae", "false"],
  ["SFPPLPPLPLPP", "Saccharomyces cerevisiae", "false"],
  ["CLLLFFIFLLFL", "Saccharomyces cerevisiae", "false"],
  ["KLKLWSIIKNNA", "Saccharomyces cerevisiae", "true"],
  ["ESVPLLIVLHLV", "Saccharomyces cerevisiae", "false"],
  ["KKTKKTMIIKTT", "Saccharomyces cerevisiae", "true"],
  ["YLFDQYDWYKSM", "Saccharomyces cerevisiae", "true"],
  ["GGVWVLGVAVVW", "Saccharomyces cerevisiae", "false"],
  ["VVPYPFLTLLNI", "Saccharomyces cerevisiae", "false"],
  ["FFRFCFLLLASS", "Saccharomyces cerevisiae", "false"],
  ["SSVCVLVSCVLG", "Saccharomyces cerevisiae", "false"],
  ["FFVEFFLLCFCS", "Saccharomyces cerevisiae", "false"],
  ["LIPFPGFFILLT", "Saccharomyces cerevisiae", "false"],
  ["TRSLLFANRCIV", "Saccharomyces cerevisiae", "true"],
  ["WHFPCPPLPCPV", "Saccharomyces cerevisiae", "false"],
  ["FPLPPPGSPPPL", "Saccharomyces cerevisiae", "true"],
  ["GGVSPRSSMDLL", "Saccharomyces cerevisiae", "true"],
  ["LPAICFWCVLVG", "Saccharomyces cerevisiae", "false"],
  ["GFCFVFVFQCFF", "Saccharomyces cerevisiae", "false"],
  ["LSLFCFFLLVLF", "Saccharomyces cerevisiae", "false"],
  ["EFFTLYDLVRFI", "Saccharomyces cerevisiae", "true"],
  ["FVVVCWFWGGGF", "Saccharomyces cerevisiae", "false"],
  ["FRYLRPAFLLLH", "Saccharomyces cerevisiae", "false"],
  ["FVICGMLVHWMV", "Saccharomyces cerevisiae", "false"],
  ["VVFLWRCRLLLG", "Saccharomyces cerevisiae", "false"],
  ["PLLVVPVPRALY", "Saccharomyces cerevisiae", "true"],
  ["VRICVVLRVCWW", "Saccharomyces cerevisiae", "false"],
  ["LVGLESCGERAG", "Saccharomyces cerevisiae", "true"],
  ["SLIFLLVLILSL", "Saccharomyces cerevisiae", "false"],
  ["PVTAVYFVLYIW", "Saccharomyces cerevisiae", "false"],
  ["RVDVSVLWNRRS", "Saccharomyces cerevisiae", "true"],
  ["VFGCHHLEVSVC", "Saccharomyces cerevisiae", "false"],
  ["CCGWSGCVSGVL", "Saccharomyces cerevisiae", "true"],
  ["PIHILTHTYIGR", "Saccharomyces cerevisiae", "true"],
  ["LPNLPPTSPERH", "Saccharomyces cerevisiae", "true"]
]}
